- assay_details: nuclear p53 accumulation, HPV+ cells – imaging, p53-positive nuclei imaging, 24 h, 48 h (AID 1508601)
- study_conditions: 24/48 h, measured here: cell number at 48 h, Library stock concentration: 1.5 uM
Screen size: about 5,700 compounds; about 85 (1%) were called active. The entries come from a sample that favours actives as a whole.
nuclei count, normalised values, listed per item
Please state the figure in %; there is no need to write the unit.

Reference set, count: 5
molecule	nuclei count, normalised [%]
CN(C)CCC(CSc1ccccc1)Nc1ccc(S(=O)(=O)NC(=O)c2ccc(N3CCN(Cc4ccccc4-c4ccc(Cl)cc4)CC3)cc2)cc1[N+](=O)[O-] (stereo unspecified)	111
Nc1ccn(C2OC(CO)C(O)C2F)c(=O)n1 (stereo unspecified)	107
C=C1C(=O)OC(CCCCCCCC)C1C(=O)O (stereo unspecified)	108
CCCCCCCCCCCCCC=CC(O)C(CO)N(C)C (stereo unspecified)	109
COc1ccc(N2C(=O)C(=Cc3ccc([N+](=O)[O-])s3)SC2=S)cc1	106

Okay, now this molecule:
(Q) Look at this molecule and give its reported nuclei count, normalised. OCC1OC(n2cnc3c2NC=NCC3O)CC1O (stereo unspecified)
(A) 112

----------
- experimental_target: Cellular tumor antigen p53 (Homo sapiens) (UniProt P04637)
- Sequence (P04637 whole entry, looked up): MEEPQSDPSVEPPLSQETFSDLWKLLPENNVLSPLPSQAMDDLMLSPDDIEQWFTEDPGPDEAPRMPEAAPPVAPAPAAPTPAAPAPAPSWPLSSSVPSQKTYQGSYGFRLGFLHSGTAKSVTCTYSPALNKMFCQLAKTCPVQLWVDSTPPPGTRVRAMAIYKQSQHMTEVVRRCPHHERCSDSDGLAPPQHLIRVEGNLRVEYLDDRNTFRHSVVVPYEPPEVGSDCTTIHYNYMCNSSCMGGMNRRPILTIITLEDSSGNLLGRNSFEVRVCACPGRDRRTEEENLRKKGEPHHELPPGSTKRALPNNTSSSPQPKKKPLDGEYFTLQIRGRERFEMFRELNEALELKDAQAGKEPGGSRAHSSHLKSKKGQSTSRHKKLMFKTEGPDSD
- assay_details: nuclear p53 accumulation, HPV+ cells – imaging, p53-positive nuclei imaging, 24 h, 48 h (AID 1508601)
- study_conditions: 24/48 h, measured here: p53 positive nuclei at 24 h, Library stock concentration: 46 uM, stronger effect = higher value
Hit rate of the full screen: of about 5,700 compounds, about 85 (1%) were called active. For the sample, actives were picked, then their nearest neighbours and some compounds at random.
# Lookup of reported p53-positive nuclei, normalised keyed by entry
I only need the number, in %, no unit after it.

Some entries whose results are on file:
compound	test_result
CN1CCc2c(c3ccccc3n2Cc2ccc(C(=O)NO)cc2)C1	-0.158
COc1ccc(CC(NC(=O)C(C)NC(=O)CN2CCOCC2)C(=O)NC(Cc2ccccc2)C(=O)[C@@]2(C)CO2)cc1 (stereo not given in full)	-0.151

(Q) For the compound CN1CCN(c2ccc(Nc3c4ccccc4nc4ccccc34)cc2)CC1 , what p53-positive nuclei, normalised is on record?
(A) -0.145

(Q) # iterate: Cc1nc(Nc2n[nH]c3c2CN(C(=O)NC(CN(C)C)c2ccccc2)C3(C)C)c2sccc2n1 (stereo not given)
(A) 0.116

(Q) Try this compound next: CC(C)(C)Nc1nc2cc(Cl)c(Cl)cc2nc1S(C)(=O)=O
(A) -0.151

----------
Entries and their measured p53-positive nuclei, normalised follow.
- experimental_target: Cellular tumor antigen p53 (Homo sapiens)
- assay_details: nuclear p53 accumulation, HPV+ cells – imaging, p53-positive nuclei imaging, 24 h, 48 h (AID 1508601)
- study_conditions: 24/48 h, Library stock concentration: 3.333 mM, stronger effect = higher value
Among all 5,700 compounds or so, about 85 (1%) were called active. The list comes from a sample in which actives are over-represented; it also holds close analogues and randomly drawn compounds.

Reference set, count: 8
molecule	p53-positive nuclei, normalised
CC(=O)OC1C(=O)[C@]2(C)C(O)CC3OC[C@@]3(OC(C)=O)C2C(OC(=O)c2ccccc2)[C@]2(O)CC(OC(=O)C(O)C(NC(=O)c3ccccc3)c3ccccc3)C(C)=C1C2(C)C (stereo not given in full)	0.0812% (inactive)
CCCCCCCCCCCCCC=CC(O)C(CO)N(C)C (stereo not given)	-0.0281% (inactive)
COc1ccc(N2C(=O)C(=Cc3ccc([N+](=O)[O-])s3)SC2=S)cc1	79.8% (active)
CN(C)CCC(CSc1ccccc1)Nc1ccc(S(=O)(=O)NC(=O)c2ccc(N3CCN(Cc4ccccc4-c4ccc(Cl)cc4)CC3)cc2)cc1[N+](=O)[O-] (stereo not given)	-0.149% (inactive)
OCC1OC(n2cnc3c2NC=NCC3O)CC1O (stereo not given)	-0.125% (inactive)
C=C1C(=O)OC(CCCCCCCC)C1C(=O)O (stereo not given)	0.104% (inactive)
NC(=O)c1ncn(C2OC(CO)C(O)C2O)c1O (stereo not given)	-0.208% (inactive)
OC(c1cc(C(F)(F)F)nc2c(C(F)(F)F)cccc12)[C@H]1CCCCN1 (stereo not given in full)	-0.144% (inactive)

(Q) Any idea what p53-positive nuclei, normalised was measured for COC(=O)C#Cc1ccc([N+](=O)[O-])cc1 ?
(A) 0.307% (inactive)

(Q) Can you check N#CSc1cc(SC#N)c(N)nc1N next?
(A) 0.39% (inactive)

----------
- experimental_target: Cellular tumor antigen p53 (Homo sapiens) (UniProt P04637)
- assay_details: nuclear p53 accumulation, HPV+ cells – imaging, p53-positive nuclei imaging, 24 h, 48 h (AID 1508601)
- study_conditions: 24/48 h, measured here: p53 positive nuclei at 24 h, Library stock concentration: 1.111 mM, stronger effect = higher value
Hit rate of the full screen: of about 5,700 compounds, about 85 (1%) were called active. Only a selection was taken, and actives are over-represented in it overall.
readout_kind: p53-positive nuclei, normalised (%)
Hi! Could you send only the number? It should be in %, unit omitted.

molecule	readout_kind	test_result
C=C1C(=O)OC(CCCCCCCC)C1C(=O)O (stereo not given)	p53-positive nuclei, normalised	0.0471
NC(=O)c1ncn(C2OC(CO)C(O)C2O)c1O (stereo not given)	p53-positive nuclei, normalised	-0.183
COc1ccc(N2C(=O)C(=Cc3ccc([N+](=O)[O-])s3)SC2=S)cc1	p53-positive nuclei, normalised	41.6
CN(C)CCC(CSc1ccccc1)Nc1ccc(S(=O)(=O)NC(=O)c2ccc(N3CCN(Cc4ccccc4-c4ccc(Cl)cc4)CC3)cc2)cc1[N+](=O)[O-] (stereo not given)	p53-positive nuclei, normalised	-0.104
Nc1ccn(C2C=C(CO)C(O)C2O)c(=O)n1 (stereo not given)	p53-positive nuclei, normalised	0.68
CC(=O)OC1C(=O)[C@]2(C)C(O)CC3OC[C@@]3(OC(C)=O)C2C(OC(=O)c2ccccc2)[C@]2(O)CC(OC(=O)C(O)C(NC(=O)c3ccccc3)c3ccccc3)C(C)=C1C2(C)C (stereo not given in full)	p53-positive nuclei, normalised	0.16

(Q) Hello, I am looking for reported p53-positive nuclei, normalised with Cellular tumor antigen p53 (Homo sapiens) (UniProt P04637) for O=C(O)c1ccccc1SC1=NS(=O)(=O)c2ccccc21 . Could you help?
(A) -0.0917

(Q) Same question for Nc1ccn(C2OC(CO)C(O)C2F)c(=O)n1 (stereo not given) please.
(A) -0.0774

(Q) // repeat for CN(NC(=O)CC(=O)NN(C)C(=S)c1ccccc1)C(=S)c1ccccc1 and report
(A) 93.5

(Q) How about CCOC(=O)c1sc(NC(=O)c2ccco2)c(SC#N)c1C ?
(A) 0.34

----------
- assay_details: nuclear p53 accumulation, HPV+ cells – imaging, p53-positive nuclei imaging, 24 h, 48 h (AID 1508601)
- study_conditions: 24/48 h, measured here: cell number at 48 h, Library stock concentration: 123 uM
Out of some 5,700 compounds screened, about 85 (1%) were called active. The sample holds actives, similar compounds and a random draw of the others, so the mix is not that of the screen.
Each entry below carries its recorded nuclei count, normalised.
Please state the figure in %; there is no need to write the unit.

Some solved cases for reference:
molecule	nuclei count, normalised / %
CN(C)CCC(CSc1ccccc1)Nc1ccc(S(=O)(=O)NC(=O)c2ccc(N3CCN(Cc4ccccc4-c4ccc(Cl)cc4)CC3)cc2)cc1[N+](=O)[O-] (stereo not given)	112
CCCCCCCCCCCCCC=CC(O)C(CO)N(C)C (stereo not given)	114

Now consider the entry below.
(Q) Entry OC(c1cc(C(F)(F)F)nc2c(C(F)(F)F)cccc12)[C@H]1CCCCN1 (stereo not given in full) : reported nuclei count, normalised = ?
(A) 113

----------
- assay_details: nuclear p53 accumulation, HPV+ cells – imaging, p53-positive nuclei imaging, 24 h, 48 h (AID 1508601)
- study_conditions: 24/48 h, measured here: cell number at 48 h, Library stock concentration: 278 uM
The whole screen tested about 5,700 compounds, of which about 85 (1%) were called active. The list comes from a sample in which actives are over-represented; it also holds close analogues and randomly drawn compounds.
readout_kind: nuclei count, normalised (%)
Please give a number only; it is taken to be in %.

# example entries with known answers
compound	nuclei count, normalised / %
COC(=O)C(NC(=O)c1cc(-c2ccccc2)nc2ccccc12)c1ccccc1 (stereo not drawn)	107
CC(C)(C)Nc1nc2cc(Cl)c(Cl)cc2nc1S(C)(=O)=O	109
Cc1ccc(B(O)O)cc1	102
O=C1NCCSc2c1sc1ccc(O)cc21	113
CCCCCc1ccc(C=CC(=O)Nc2ccccc2C(=O)O)cc1	110
O=C1CC(c2ccc([N+](=O)[O-])cc2)=NN1c1ccccc1	109
Cc1cc(C)c(N(Cc2ccccc2)S(=O)(=O)c2ccc(OCCNC(=O)c3cc4ccccc4o3)cc2)c(C(=O)NO)c1	104
Cc1nc(Nc2n[nH]c3c2CN(C(=O)NC(CN(C)C)c2ccccc2)C3(C)C)c2sccc2n1 (stereo not drawn)	99.1
Cc1cc(OCCCS(C)(=O)=O)cc(C)c1-c1cccc(COc2ccc3c(c2)OCC3CC(=O)O)c1 (stereo not drawn)	104
CS(=O)(=O)N1CCN(Cc2cc3nc(-c4cccc5[nH]ncc45)nc(N4CCOCC4)c3s2)CC1	100

(Q) Could you share which nuclei count, normalised value was measured for Nc1ccccc1NC(=O)c1ccc(CNC(=O)OCc2cccnc2)cc1 ?
(A) 103

(Q) Param item: COc1ccc(CC(NC(=O)C(C)NC(=O)CN2CCOCC2)C(=O)NC(Cc2ccccc2)C(=O)[C@@]2(C)CO2)cc1 (stereo partly drawn)
(A) 113

(Q) Please answer likewise for CCN(CC)c1ccc(C=NNC(=O)c2ccc(O)cc2)cc1
(A) 118
